Target: ALK tyrosine kinase receptor (Homo sapiens) (UniProt Q9UM73)
Sequence (Q9UM73 19-1620 limits assumed): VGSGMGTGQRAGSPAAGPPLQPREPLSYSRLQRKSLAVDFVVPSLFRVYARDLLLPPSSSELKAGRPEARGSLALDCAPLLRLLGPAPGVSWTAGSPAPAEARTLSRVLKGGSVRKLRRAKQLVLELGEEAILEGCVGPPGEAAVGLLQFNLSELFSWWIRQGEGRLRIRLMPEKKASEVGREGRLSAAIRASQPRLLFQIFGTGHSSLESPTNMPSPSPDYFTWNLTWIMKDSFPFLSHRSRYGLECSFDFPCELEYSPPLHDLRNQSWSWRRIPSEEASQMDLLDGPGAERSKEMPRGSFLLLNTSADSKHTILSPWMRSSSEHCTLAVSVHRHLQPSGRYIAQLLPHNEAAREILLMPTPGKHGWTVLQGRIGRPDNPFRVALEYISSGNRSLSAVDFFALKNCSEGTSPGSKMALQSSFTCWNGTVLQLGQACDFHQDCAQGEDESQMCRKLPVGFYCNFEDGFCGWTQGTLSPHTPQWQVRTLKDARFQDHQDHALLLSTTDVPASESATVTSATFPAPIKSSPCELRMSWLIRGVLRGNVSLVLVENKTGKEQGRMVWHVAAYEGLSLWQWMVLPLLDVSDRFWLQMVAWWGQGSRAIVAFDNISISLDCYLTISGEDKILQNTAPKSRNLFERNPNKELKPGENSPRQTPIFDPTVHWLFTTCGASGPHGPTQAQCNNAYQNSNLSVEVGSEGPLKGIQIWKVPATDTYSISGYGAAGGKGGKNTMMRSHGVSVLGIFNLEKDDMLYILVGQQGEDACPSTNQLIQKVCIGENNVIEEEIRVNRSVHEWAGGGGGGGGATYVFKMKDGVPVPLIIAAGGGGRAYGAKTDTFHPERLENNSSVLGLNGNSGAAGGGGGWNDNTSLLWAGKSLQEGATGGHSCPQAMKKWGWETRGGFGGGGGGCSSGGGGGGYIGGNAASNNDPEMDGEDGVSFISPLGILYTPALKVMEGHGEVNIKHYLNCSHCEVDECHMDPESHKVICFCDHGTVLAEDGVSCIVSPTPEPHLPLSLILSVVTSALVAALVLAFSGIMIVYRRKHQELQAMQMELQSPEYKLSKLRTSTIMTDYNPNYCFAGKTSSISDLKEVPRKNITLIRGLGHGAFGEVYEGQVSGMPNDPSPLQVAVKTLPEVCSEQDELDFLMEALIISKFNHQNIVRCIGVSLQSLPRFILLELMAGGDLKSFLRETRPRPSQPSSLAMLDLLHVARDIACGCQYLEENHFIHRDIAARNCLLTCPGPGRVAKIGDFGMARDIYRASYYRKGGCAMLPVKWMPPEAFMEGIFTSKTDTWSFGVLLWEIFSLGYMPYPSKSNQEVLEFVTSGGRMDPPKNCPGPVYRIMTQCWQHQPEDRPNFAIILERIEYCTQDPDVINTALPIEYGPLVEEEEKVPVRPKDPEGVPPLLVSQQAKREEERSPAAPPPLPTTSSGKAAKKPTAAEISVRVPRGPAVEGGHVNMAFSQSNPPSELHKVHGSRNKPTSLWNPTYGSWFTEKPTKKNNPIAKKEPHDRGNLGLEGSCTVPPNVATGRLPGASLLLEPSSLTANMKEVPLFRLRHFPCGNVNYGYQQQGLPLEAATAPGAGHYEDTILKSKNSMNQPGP
Settings: at 10 µM
We begin with a simple list: items and their reported residual activity.
Write it as a number; the unit % goes unstated.

Please look up its residual activity: Nc1cccc(-c2cc3c(Oc4cccc(O)c4)ncnc3[nH]2)c1
8

// repeat for COc1ccc(C(=O)Nc2sc3c(c2C(N)=O)CCCC3)cc1OC and report
72

// repeat for O=c1cc(-c2cccc3c2Sc2ccccc2S3)oc(N2CCOCC2)c1 and report
84

// repeat for c1ccc(-c2n[nH]cc2-c2ccnc3ccccc23)nc1 and report
105

// repeat for CCN(CC)C(=O)c1ccc(Nc2nc(OCC3CCCCC3)c3nc[nH]c3n2)cc1 and report
6

// repeat for COc1ccc(CNc2nc(N(CCO)CCO)nc3c2ncn3C(C)C)cc1 and report
61

// repeat for Cc1nc2cc3nc(-c4cccs4)cnc3cc2n1C and report
112

// repeat for COc1ccc(OC)c2c(=S)c3ccccc3[nH]c12 and report
76

// repeat for CC#CC(=O)Nc1cc2c(Nc3ccc(F)c(Cl)c3)ncnc2cn1 and report
81

// repeat for O=Nc1c(-c2c(O)[nH]c3ccccc23)[nH]c2ccccc12 and report
18

// repeat for CCOc1cc2ncnc(Nc3cccc(Br)c3)c2cc1OCC and report
39
